# experiment-description: In vivo pharmacokinetics in mice
# measurement-setup: mouse, plasma; 10 mg/kg PO, male C57BL/6 mice
metric-name: bioavailability (%)
Number only, in %; omit the unit.

Given C=CC(=O)Nc1cc(C(=O)Nc2nc3cccc(C)c3n2[C@@H]2CCCCN(C(=O)C=C)C2)cs1 [ZNL-0056] , state its recorded bioavailability. 24

====

# experiment-description: In vivo pharmacokinetics in mice
# measurement-setup: mouse, plasma; 1 mg/kg IV, male C57BL/6 mice
# Experimental: To address this question, we tested the GSH reactivity of ZNL-0056 (Table S3) and its in vivo pharmacokinetic (PK) properties using three routes of administration including: 1 mg/kg IV, 3 mg/kg IP, and 10 mg/kg PO in male C57BL/6 mice (Table S4). Table S4. Effect of ZNL-0056 in vivo- PK Parameters Dose: 1mg/Kg IV, 3mg/Kg IP, 10mg/Kg PO. Formulation: 0.1mg/mL(IV) and 0.3mg/mL (IP) and 1mg/mL (PO) solution in 5/25/70 EtOH/PEG300/D5W. […]
metric-name: half-life (min)
Give the quantity in min, number only.

Name the recorded half-life for `C=CC(=O)Nc1cc(C(=O)Nc2nc3cccc(C)c3n2[C@@H]2CCCCN(C(=O)C=C)C2)cs1` . 19.8

====

# measurement-target: MKK7 (Homo sapiens)
# Construct: purchased DiscoverX
# Sequence (O14733 whole entry): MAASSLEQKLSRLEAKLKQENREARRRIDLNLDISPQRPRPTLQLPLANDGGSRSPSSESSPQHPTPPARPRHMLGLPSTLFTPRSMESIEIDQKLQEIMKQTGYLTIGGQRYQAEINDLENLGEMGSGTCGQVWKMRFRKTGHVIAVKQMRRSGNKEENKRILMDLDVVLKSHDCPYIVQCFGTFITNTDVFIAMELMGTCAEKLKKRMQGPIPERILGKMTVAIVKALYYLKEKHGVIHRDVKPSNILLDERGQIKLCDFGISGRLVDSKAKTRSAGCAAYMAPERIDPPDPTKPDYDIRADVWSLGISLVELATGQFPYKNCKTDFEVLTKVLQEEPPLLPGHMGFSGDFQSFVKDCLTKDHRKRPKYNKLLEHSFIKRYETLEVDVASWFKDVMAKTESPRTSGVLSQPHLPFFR
# experiment-description: MKK7 binding, KdELECT assays (DiscoverX)
# measurement-setup: Figure 2D; read-out: IC50 against MKK7
metric-name: pIC50
The value called pIC50 is obtained by taking minus log10 of the concentration in mol/L.

Some entries whose results are on file:
C=CC(=O)Nc1ccccc1Nc1nc(NC2CCN(C(=O)CC)C2)ncc1Cl (stereo not shown) | 6.36
C=CC(=O)Nc1ccccc1Nc1nc(NC2CCN(C(=O)C=C)C2)ncc1Cl (stereo not shown) | 6.88

Consider the additional molecule presented here.
Recorded pIC50 for C=CC(=O)N1CCC(Nc2ncc(Cl)c(Nc3ccccc3NC(=O)CC)n2)C1 (stereo not shown) , please? 6.50

====

# measurement-target: BTK (Homo sapiens, UniProt Q06187)
# Sequence (Q06187 whole entry): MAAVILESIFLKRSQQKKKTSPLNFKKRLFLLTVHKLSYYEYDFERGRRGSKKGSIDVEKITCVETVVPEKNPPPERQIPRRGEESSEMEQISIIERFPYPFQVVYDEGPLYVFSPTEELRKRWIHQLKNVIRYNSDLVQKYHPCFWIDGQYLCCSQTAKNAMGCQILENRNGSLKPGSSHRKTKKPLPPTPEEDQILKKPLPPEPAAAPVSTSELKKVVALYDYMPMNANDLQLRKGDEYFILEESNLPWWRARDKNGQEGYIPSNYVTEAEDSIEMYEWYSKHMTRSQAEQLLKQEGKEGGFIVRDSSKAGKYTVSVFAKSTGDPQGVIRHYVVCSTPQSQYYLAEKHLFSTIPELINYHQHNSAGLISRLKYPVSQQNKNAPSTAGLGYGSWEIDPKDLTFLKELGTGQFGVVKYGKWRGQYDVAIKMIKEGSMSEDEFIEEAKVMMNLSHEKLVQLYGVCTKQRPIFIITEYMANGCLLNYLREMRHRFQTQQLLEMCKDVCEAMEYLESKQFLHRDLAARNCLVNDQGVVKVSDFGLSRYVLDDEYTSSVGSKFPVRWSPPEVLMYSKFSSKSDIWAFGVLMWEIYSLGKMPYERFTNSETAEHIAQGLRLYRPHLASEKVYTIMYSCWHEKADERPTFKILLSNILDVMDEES
# experiment-description: Z'-LYTE biochemical assay
# measurement-setup: read-out: IC50 (nM) against BTK
metric-name: IC50
Could you kindly put the unit after your number?

Would you kindly share the measured IC50 for `C=CC(=O)Nc1cc(C(=O)Nc2nc3cccc(C)c3n2[C@@H]2CCCCN(C(=O)C=C)C2)cs1` ? 1.13 nM

====

# Tested on: p-JNK1/2
# experiment-description: Immunoblot of MKK7-JNK pathway in MDA-MB-231 cells
# Assay type: cell-based
# measurement-setup: MDA-MB-231, anisomycin, 16 h, up to 10 μM
metric-name: inhibition of p-JNK1/2

C=CC(=O)Nc1ccccc1Nc1nc(NC2CCN(C(=O)CC)C2)ncc1Cl (stereo not shown) [ZNL-8163] | less potency
C=CC(=O)N1CCC(Nc2ncc(Cl)c(Nc3ccccc3NC(=O)CC)n2)C1 (stereo not shown) [ZNL-8165] | less potency

====

# experiment-description: Glutathione (GSH) reactivity
# Type: in vitro ADME
# measurement-setup: glutathione (GSH) in buffer; read-out: half-life of conjugation with glutathione (GSH)
Measured half-life, listed per entry for reference.
Number in min, nothing else.

C=CC(=O)Nc1cc(C(=O)Nc2nc3cccc(C)c3n2[C@@H]2CCCCN(C(=O)C=C)C2)cs1 | 36

// switching to the query compound
Which half-life reading was recorded for the compound C=CC(=O)Nc1cc(Nc2nccc(-c3cn(C)c4ccccc34)n2)c(OC)cc1N(C)CCN(C)C [Osimertinib, osimertinib, reference compound] ? 49

====

# measurement-target: BLK (Homo sapiens)
# Sequence (P51451 whole entry): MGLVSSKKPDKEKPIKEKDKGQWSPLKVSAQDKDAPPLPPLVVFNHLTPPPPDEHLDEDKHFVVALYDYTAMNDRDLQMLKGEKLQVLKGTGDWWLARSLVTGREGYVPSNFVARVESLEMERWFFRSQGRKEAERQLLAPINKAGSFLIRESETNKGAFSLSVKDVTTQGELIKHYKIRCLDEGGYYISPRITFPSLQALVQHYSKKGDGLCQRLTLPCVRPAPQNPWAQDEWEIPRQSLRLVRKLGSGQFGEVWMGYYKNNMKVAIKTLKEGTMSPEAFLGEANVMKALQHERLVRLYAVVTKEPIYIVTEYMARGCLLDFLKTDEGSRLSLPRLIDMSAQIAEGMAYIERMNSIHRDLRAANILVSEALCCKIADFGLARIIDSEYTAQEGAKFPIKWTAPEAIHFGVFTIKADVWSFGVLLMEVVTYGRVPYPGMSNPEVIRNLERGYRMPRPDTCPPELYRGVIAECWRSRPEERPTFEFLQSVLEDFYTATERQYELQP
# experiment-description: Z'-LYTE biochemical assay
# measurement-setup: read-out: IC50 (nM) against BLK
metric-name: IC50 (nM)
# value in nM; strip the unit string

Sample `C=CC(=O)Nc1cc(C(=O)Nc2nc3cccc(C)c3n2[C@@H]2CCCCN(C(=O)C=C)C2)cs1` — what was its IC50? 3.17

====

# measurement-target: EGFR L858R (Homo sapiens, UniProt P00533, L858R)
# Sequence (P00533 25-1210 L858R): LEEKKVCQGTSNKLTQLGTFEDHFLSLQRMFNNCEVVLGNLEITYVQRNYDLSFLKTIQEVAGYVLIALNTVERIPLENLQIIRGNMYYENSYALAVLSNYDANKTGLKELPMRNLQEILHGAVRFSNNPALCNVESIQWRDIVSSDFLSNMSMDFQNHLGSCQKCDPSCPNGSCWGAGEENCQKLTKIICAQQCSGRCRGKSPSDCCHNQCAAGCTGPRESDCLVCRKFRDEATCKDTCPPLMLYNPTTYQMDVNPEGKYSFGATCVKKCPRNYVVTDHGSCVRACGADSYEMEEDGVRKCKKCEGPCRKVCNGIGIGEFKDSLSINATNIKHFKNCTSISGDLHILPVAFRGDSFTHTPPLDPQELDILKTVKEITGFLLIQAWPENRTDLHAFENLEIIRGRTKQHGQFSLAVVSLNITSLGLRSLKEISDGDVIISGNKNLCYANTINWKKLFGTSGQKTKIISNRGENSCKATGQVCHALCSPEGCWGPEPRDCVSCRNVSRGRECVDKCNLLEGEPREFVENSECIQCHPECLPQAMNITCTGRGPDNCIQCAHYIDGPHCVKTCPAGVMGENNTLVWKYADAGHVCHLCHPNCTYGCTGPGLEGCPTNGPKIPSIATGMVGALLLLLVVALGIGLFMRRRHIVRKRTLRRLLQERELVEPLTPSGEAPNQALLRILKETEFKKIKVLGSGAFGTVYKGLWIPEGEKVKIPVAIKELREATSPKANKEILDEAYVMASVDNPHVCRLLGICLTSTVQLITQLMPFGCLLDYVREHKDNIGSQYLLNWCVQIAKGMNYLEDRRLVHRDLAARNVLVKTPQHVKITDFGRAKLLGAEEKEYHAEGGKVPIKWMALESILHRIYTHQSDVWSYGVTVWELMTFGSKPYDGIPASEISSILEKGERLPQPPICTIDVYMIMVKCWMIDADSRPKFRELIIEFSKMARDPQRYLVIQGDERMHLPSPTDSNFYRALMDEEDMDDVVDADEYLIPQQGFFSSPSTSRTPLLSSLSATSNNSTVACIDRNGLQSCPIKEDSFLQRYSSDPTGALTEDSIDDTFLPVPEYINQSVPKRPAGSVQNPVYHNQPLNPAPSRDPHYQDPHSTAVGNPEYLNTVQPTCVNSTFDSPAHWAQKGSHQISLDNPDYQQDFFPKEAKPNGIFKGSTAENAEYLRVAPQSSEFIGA
# experiment-description: Z'-LYTE biochemical assay
# measurement-setup: read-out: IC50 (nM) against EGFR L858R
metric-name: IC50 (nM)
I only need the number, in nM, no unit after it.

So what does the record say about IC50 for C=CC(=O)Nc1cc(C(=O)Nc2nc3cccc(C)c3n2[C@@H]2CCCCN(C(=O)C=C)C2)cs1 [ZNL-0056] ? 6.21

====

# measurement-target: ITK (Homo sapiens, UniProt Q08881)
# Sequence (Q08881 whole entry): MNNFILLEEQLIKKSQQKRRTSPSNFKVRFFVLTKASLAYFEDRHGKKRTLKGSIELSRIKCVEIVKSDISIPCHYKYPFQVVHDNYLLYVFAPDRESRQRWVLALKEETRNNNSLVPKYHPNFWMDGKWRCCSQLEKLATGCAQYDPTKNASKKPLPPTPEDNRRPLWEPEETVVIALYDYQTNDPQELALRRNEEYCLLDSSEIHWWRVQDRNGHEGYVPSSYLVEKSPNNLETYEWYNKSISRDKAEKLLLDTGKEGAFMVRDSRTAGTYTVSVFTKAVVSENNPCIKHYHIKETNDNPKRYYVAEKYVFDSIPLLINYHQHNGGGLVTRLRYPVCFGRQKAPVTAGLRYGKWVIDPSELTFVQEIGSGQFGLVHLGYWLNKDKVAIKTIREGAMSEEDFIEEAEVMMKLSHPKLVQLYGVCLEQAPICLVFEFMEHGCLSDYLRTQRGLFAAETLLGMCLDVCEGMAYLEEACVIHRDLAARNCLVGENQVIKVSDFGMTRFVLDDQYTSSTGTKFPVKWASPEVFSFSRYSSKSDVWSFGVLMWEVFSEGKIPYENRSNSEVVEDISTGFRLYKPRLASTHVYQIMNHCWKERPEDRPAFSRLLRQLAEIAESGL
# experiment-description: Z'-LYTE biochemical assay
# measurement-setup: read-out: IC50 (nM) against ITK
metric-name: IC50 (nM)
Respond with the bare value in nM.

Which IC50 value belongs to `C=CC(=O)Nc1cc(C(=O)Nc2nc3cccc(C)c3n2[C@@H]2CCCCN(C(=O)C=C)C2)cs1` ? 7.81
